System: SK-MEL-5 melanoma
Assay: NCI tumour cell line growth inhibition, 48 h
testReadout: TGI

Some solved entries appear below for comparison.
# molecule, testReadout, assayValue
rows = [
    ("CCOC(=O)C(C)c1nc2ccc(C(F)(F)F)cc2[nH]c1=O (stereo not drawn)", "TGI", "> 100 µM"),
    ("N#C/C(N)=C(\\C#N)N=CNc1ccc(N)cc1", "TGI", "> 100 µM"),
]

Ask: Provide only the value of recorded TGI for Oc1[nH]c2ccccc2c1N=Nc1c(F)c(F)c(F)c(F)c1F
Result: > 100 µM

* * *

Listed molecules paired with reported TGI
Tested on: NCI/ADR-RES ovarian
Assay: NCI tumour cell line growth inhibition, 48 h

Some solved entries appear below for comparison.
# molecule, testReadout, assayValue
data = [
    ("O=C(Nc1ccccc1O)c1ccc(NS(=O)(=O)c2cccc3cccnc23)cc1", "TGI", "5.96 µM"),
    ("CCCN1C(=O)/C(=C\\c2ccc(OC)c(OC)c2)SC1=Nc1ccccc1", "TGI", "> 100 µM"),
    ("O=c1cc(-c2ccccc2)oc2cc(OC/C(=N/O)c3ccc(F)cc3)ccc12", "TGI", "> 50 µM"),
    ("NC1Cc2ccccc2OC1=O (centres undefined)", "TGI", "> 100 µM"),
    ("NC(=O)c1c(NC=O)ncn1C1OCC(O)C(O)C1O (centres undefined)", "TGI", "> 100 µM"),
    ("C=CCOc1ccccc1C1(O)c2ccccc2C2=NCCCN21 (centres undefined)", "TGI", "> 100 µM"),
    ("CC[P+]1(c2ccccc2)[C@@H](C)CC[C@@H]1C", "TGI", "> 100 µM"),
    ("CC(C)(C)OC(=O)Cn1ncn(NC(=O)Cc2ccccc2)c1=O", "TGI", "> 10 µM"),
    ("O=C(/C=C/C12c3ccccc3C(c3ccccc31)C1C(=O)NC(=O)C12)c1ccc(Cl)cc1 (centres undefined)", "TGI", "4.93 µM"),
    ("CCCC1(CCC)c2cc(/C=N\\O)ccc2-c2ccc(-c3ccc(C(C)(C)C)cc3)cc21", "TGI", "> 100 µM"),
]

Ask: Provide only the value of recorded TGI for C=C1C(=O)O[C@H]2[C@H]1CC/C(COC(=O)NCCc1c[nH]c3ccc(Cl)cc13)=C\CC[C@@]1(C)O[C@@H]21
Result: 9.77 µM

Ask: Provide only the value of recorded TGI for CC(=O)c1cc(C(=O)c2ccc3c(c2)Sc2ccccc2N3)c2c(C)cccn12
Result: 18 µM

Ask: Provide only the value of recorded TGI for COc1cc(-n2ccnc2)cc(OC)c1OC
Result: > 100 µM

Ask: Provide only the value of recorded TGI for COc1cc(NC=C2C(=O)OC(C)(C)OC2=O)c(OC)c(C)c1OC
Result: > 100 µM

Ask: Provide only the value of recorded TGI for C=CCc1cc(C(Cc2ccccc2)NC(C)C)cc(OCc2ccccc2)c1OCc1ccccc1 (centres undefined)
Result: 30.7 µM

Ask: Provide only the value of recorded TGI for CC1CN=C(c2cccc(-c3nc(-c4cccc(C5=NCC(C)N5)c4)nc(N(C)C)n3)c2)N1 (centres undefined)
Result: 35.9 µM

Ask: Provide only the value of recorded TGI for COc1ccc(-n2c(=O)n(-c3ccccc3)c(=O)n2-c2ccc(OC)cc2)cc1
Result: > 100 µM

Ask: Provide only the value of recorded TGI for O=[N+]([O-])/C(C(Cl)=C(Cl)Cl)=C(\N1CCCCC1)n1nnc2ccccc21
Result: > 81.1 µM

Ask: Provide only the value of recorded TGI for COc1ccc(N2C(=O)C3c4[nH]c5ccc(F)cc5c4C4CCC(C(C)(C)C)CC4C3C2=O)cc1 (centres undefined)
Result: > 10 µM
